Just for reference, the supplement of paper PMC11061612 is where these values come from.

Test system: SF268 (Low Grade Glioma)
assay info: combination Emax (second highest fraction inhibited in the dose matrix, 72 h); higher = more inhibition; extreme values may be limits of the assay
reported property: combination Emax
One number for each entry.

These recorded examples may help you get a feel for the data.
molecule	experimental target	reported property	obs value
CC(=O)Nc1cccc(-n2c(=O)n(C3CC3)c(=O)c3c(Nc4ccc(I)cc4F)n(C)c(=O)c(C)c32)c1 [Trametinib] + Cc1nc(-c2cn3c(n2)-c2ccc(-c4cnn(C(C)(C)C(N)=O)c4)cc2OCC3)n(C(C)C)n1 [Taselisib] (first compound max 1 µM, 7x7, partner max 10 µM)	SF268 (Low Grade Glioma)	combination Emax	0.484
CC1(C)CCC(CN2CCN(c3ccc(C(=O)NS(=O)(=O)c4ccc(NCC5CCOCC5)c([N+](=O)[O-])c4)c(Oc4cnc5[nH]ccc5c4)c3)CC2)=C(c2ccc(Cl)cc2)C1 [Venetoclax] + CN(C)CCCOc1ccc(-c2ccc3ncc4c(c3c2)n(C2CCOCC2)c(=O)n4C)cn1 [AZD0156] (first compound max 1 µM, 7x7, partner max 1 µM)	SF268 (Low Grade Glioma)	combination Emax	0.298
C[C@@H]1COCCN1c1cc(C2([S@](C)(=N)=O)CC2)nc(-c2ccnc3[nH]ccc23)n1 [AZD6738] + O=C(c1cc(Cc2n[nH]c(=O)c3ccccc23)ccc1F)N1CCN(C(=O)C2CC2)CC1 [Olaparib] (first compound max 10 µM, 7x7, partner max 10 µM)	SF268 (Low Grade Glioma)	combination Emax	0.407
COc1nnc2ccc(N3CCC(c4ccc(OCCN5CCN(C)C(=O)[C@H]5C)cc4)CC3)nn12 [AZD5153] + Cn1cnc2c(F)c(Nc3ccc(Br)cc3Cl)c(C(=O)NOCCO)cc21 [Selumetinib] (first compound max 1 µM, 7x7, partner max 10 µM)	SF268 (Low Grade Glioma)	combination Emax	0.518
CCN(CCO)CCCOc1ccc2c(Nc3cc(CC(=O)Nc4cccc(F)c4)[nH]n3)ncnc2c1 [AZD2811] + C=CCn1c(=O)c2cnc(Nc3ccc(N4CCN(C)CC4)cc3)nc2n1-c1cccc(C(C)(C)O)n1 [AZD1775] (first compound max 1 µM, partner max 1 µM)	SF268 (Low Grade Glioma)	combination Emax	0.245

Look at each molecule and report its combination Emax.
1. COc1nnc2ccc(N3CCC(c4ccc(OCCN5CCN(C)C(=O)[C@H]5C)cc4)CC3)nn12 [AZD5153] + C=CCn1c(=O)c2cnc(Nc3ccc(N4CCN(C)CC4)cc3)nc2n1-c1cccc(C(C)(C)O)n1 [AZD1775] (first compound max 1 µM, partner max 1 µM)
2. C=CCn1c(=O)c2cnc(Nc3ccc(N4CCN(C)CC4)cc3)nc2n1-c1cccc(C(C)(C)O)n1 [AZD1775] + O=C(c1cc(Cc2n[nH]c(=O)c3ccccc23)ccc1F)N1CCN(C(=O)C2CC2)CC1 [Olaparib] (first compound max 1 µM, partner max 10 µM)
3. CCN(CCO)CCCOc1ccc2c(Nc3cc(CC(=O)Nc4cccc(F)c4)[nH]n3)ncnc2c1 [AZD2811] + C[C@@H]1COCCN1C2=NC(=NC(=C2)C3(CC3)[S@](=N)(=O)C)C4=C5C=CNC5=NC=C4 [AZD6738] (first compound max 1 µM, 7x7, partner max 10 µM)

## Output
0.637
0.251
0.381

Look at each molecule and report its combination Emax.
1. COc1cccc(OCCCN)c1-c1cc(Nc2cnc(C#N)cn2)n[nH]1 [Prexasertib] + CN(C)CCCOc1ccc(-c2ccc3ncc4c(c3c2)n(C2CCOCC2)c(=O)n4C)cn1 [AZD0156] (first compound max 1 µM, 7x7, partner max 1 µM)
2. Cn1cnc2c(F)c(Nc3ccc(Br)cc3Cl)c(C(=O)NOCCO)cc21 [Selumetinib] + C[C@@H]1COCCN1C2=NC(=NC(=C2)C3(CC3)[S@](=N)(=O)C)C4=C5C=CNC5=NC=C4 [AZD6738] (first compound max 10 µM, 7x7, partner max 10 µM)
3. C=CCn1c(=O)c2cnc(Nc3ccc(N4CCN(C)CC4)cc3)nc2n1-c1cccc(C(C)(C)O)n1 [AZD1775] + C[C@@H]1COCCN1C2=NC(=NC(=C2)C3(CC3)[S@](=N)(=O)C)C4=C5C=CNC5=NC=C4 [AZD6738] (first compound max 1 µM, partner max 10 µM)
4. COc1cc2ncnc(Nc3ccc(F)c(Cl)c3)c2cc1OCCCN1CCOCC1 [Gefitinib] + CC(C)n1c(=O)n(C)c2cnc3cc(F)c(-c4ccc(OCCCN5CCCCC5)nc4)cc3c21 [AZD1390] (first compound max 10 µM, 7x7, partner max 0.3 µM)
5. COc1cccc2c1C(=O)c1c(O)c3c(c(O)c1C2=O)C[C@@](O)(C(=O)CO)C[C@@H]3O[C@H]1C[C@H](N)[C@H](O)[C@H](C)O1 [Doxorubicin] + Cc1cc2ncnn2cc1Nc1ncc2c(n1)n(C1CCOCC1)c(=O)n2C [AZD7648] (first compound max 1 µM, 7x7, partner max 10 µM)

## Output
1: 0.493; 2: 0.49; 3: 0.526; 4: 0.155; 5: 0.538

## Input // lookup combination Emax for COc1nnc2ccc(N3CCC(c4ccc(OCCN5CCN(C)C(=O)[C@H]5C)cc4)CC3)nn12 [AZD5153] + CCN(CCO)CCCOc1ccc2c(Nc3cc(CC(=O)Nc4cccc(F)c4)[nH]n3)ncnc2c1 [AZD2811] (first compound max 1 µM, 7x7, partner max 1 µM)
## Output 0.609

###

Test system: RCM-1 (Colorectal Carcinoma)
assay info: combination Emax (second highest fraction inhibited in the dose matrix, 72 h); higher = more inhibition; extreme values may be limits of the assay
Provide the recorded combination Emax for the entries that follow.
One number for each entry.

These recorded examples may help you get a feel for the data.
molecule	reported property	obs value
NC1(C(=O)N[C@@H](CCO)c2ccc(Cl)cc2)CCN(c2ncnc3[nH]ccc23)CC1 [Capivasertib] + CC(=O)c1c(C)c2cnc(Nc3ccc(N4CCNCC4)cn3)nc2n(C2CCCC2)c1=O [Palbociclib] (first compound max 10 µM, 7x7, partner max 10 µM)	combination Emax	0.383
C[C@@H](Nc1cc(F)cc(F)c1)c1cc(C(=O)N(C)C)cc2c(=O)cc(N3CCOCC3)oc12 [AZD8186] + C1CN(CCC1(C(=O)N[C@@H](CCO)C2=CC=C(C=C2)Cl)N)C3=NC=NC4=C3C=CN4 [AZD5363] (first compound max 10 µM, 7x7, partner max 10 µM)	combination Emax	0.233
NC1(C(=O)N[C@@H](CCO)c2ccc(Cl)cc2)CCN(c2ncnc3[nH]ccc23)CC1 [Capivasertib] + CC(C)n1c(=O)n(C)c2cnc3cc(F)c(-c4ccc(OCCCN5CCCCC5)nc4)cc3c21 [AZD1390] (first compound max 10 µM, 7x7, partner max 0.3 µM)	combination Emax	0.253

--- query ---
## Input // lookup combination Emax for Cc1c2c(nn1C)CSCc1cc(n(C)n1)CSc1cc(c3ccccc3c1)OCCCc1c(C(=O)O)n(C)c3c-2c(Cl)ccc13 [AZD5991] + C1CN(CCC1(C(=O)N[C@@H](CCO)C2=CC=C(C=C2)Cl)N)C3=NC=NC4=C3C=CN4 [Capivasertib] (first compound max 1 µM, 7x7, partner max 3 µM)
## Output 0.307

###

Provide the recorded Bliss excess for the entries that follow.
System: MKN45 (Gastric Carcinoma);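 also: after 72 h of two-drug dosing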
assay info: Bliss excess, mean over the matrix (fraction); higher = more synergy
Answers are plain numbers.

These recorded examples may help you get a feel for the data.
compound	Bliss excess
CC1(C)CCC(CN2CCN(c3ccc(C(=O)NS(=O)(=O)c4ccc(NCC5CCOCC5)c([N+](=O)[O-])c4)c(Oc4cnc5[nH]ccc5c4)c3)CC2)=C(c2ccc(Cl)cc2)C1 [Venetoclax] + C[C@@H](Nc1cc(F)cc(F)c1)c1cc(C(=O)N(C)C)cc2c(=O)cc(N3CCOCC3)oc12 [AZD8186] (first compound max 1 µM, 7x7, partner max 3 µM)	-0.057
COc1cccc(OCCCN)c1-c1cc(Nc2cnc(C#N)cn2)n[nH]1 [Prexasertib] + Cc1cc2ncnn2cc1Nc1ncc2c(n1)n(C1CCOCC1)c(=O)n2C [AZD7648] (first compound max 1 µM, 7x7, partner max 10 µM)	-0.0229
COc1cccc(OCCCN)c1-c1cc(Nc2cnc(C#N)cn2)n[nH]1 [Prexasertib] + CN(C)CCCOc1ccc(-c2ccc3ncc4c(c3c2)n(C2CCOCC2)c(=O)n4C)cn1 [AZD0156] (first compound max 1 µM, 7x7, partner max 1 µM)	-0.0645
NC1(C(=O)N[C@@H](CCO)c2ccc(Cl)cc2)CCN(c2ncnc3[nH]ccc23)CC1 [Capivasertib] + CC(C)n1c(=O)n(C)c2cnc3cc(F)c(-c4ccc(OCCCN5CCCCC5)nc4)cc3c21 [AZD1390] (first compound max 10 µM, 7x7, partner max 0.3 µM)	-0.0646
CC1(C)CCC(CN2CCN(c3ccc(C(=O)NS(=O)(=O)c4ccc(NCC5CCOCC5)c([N+](=O)[O-])c4)c(Oc4cnc5[nH]ccc5c4)c3)CC2)=C(c2ccc(Cl)cc2)C1 [Venetoclax] + COc1cc(Nc2ncc3c(n2)-c2ccc(Cl)cc2C(c2c(F)cccc2OC)=NC3)ccc1C(=O)O [Alisertib] (first compound max 1 µM, 7x7, partner max 10 µM)	-0.0645

Look at each compound and report its Bliss excess.
1. CN(C)CCCOc1ccc(-c2ccc3ncc4c(c3c2)n(C2CCOCC2)c(=O)n4C)cn1 [AZD0156] + CCN(CCO)CCCOc1ccc2c(Nc3cc(CC(=O)Nc4cccc(F)c4)[nH]n3)ncnc2c1 [AZD2811] (first compound max 1 µM, 7x7, partner max 1 µM)
2. CC1(C)CCC(CN2CCN(c3ccc(C(=O)NS(=O)(=O)c4ccc(NCC5CCOCC5)c([N+](=O)[O-])c4)c(Oc4cnc5[nH]ccc5c4)c3)CC2)=C(c2ccc(Cl)cc2)C1 [Venetoclax] + Cn1cnc2c(F)c(Nc3ccc(Br)cc3Cl)c(C(=O)NOCCO)cc21 [Selumetinib] (first compound max 1 µM, 7x7, partner max 3 µM)

## Output
0.0034
-0.0574
